# reported IC50; entries follow
# assayed target: Human TRPC6 (Homo sapiens, UniProt Q9Y210)
# Construct: expressed in transfected cells
# Sequence (Q9Y210 whole entry): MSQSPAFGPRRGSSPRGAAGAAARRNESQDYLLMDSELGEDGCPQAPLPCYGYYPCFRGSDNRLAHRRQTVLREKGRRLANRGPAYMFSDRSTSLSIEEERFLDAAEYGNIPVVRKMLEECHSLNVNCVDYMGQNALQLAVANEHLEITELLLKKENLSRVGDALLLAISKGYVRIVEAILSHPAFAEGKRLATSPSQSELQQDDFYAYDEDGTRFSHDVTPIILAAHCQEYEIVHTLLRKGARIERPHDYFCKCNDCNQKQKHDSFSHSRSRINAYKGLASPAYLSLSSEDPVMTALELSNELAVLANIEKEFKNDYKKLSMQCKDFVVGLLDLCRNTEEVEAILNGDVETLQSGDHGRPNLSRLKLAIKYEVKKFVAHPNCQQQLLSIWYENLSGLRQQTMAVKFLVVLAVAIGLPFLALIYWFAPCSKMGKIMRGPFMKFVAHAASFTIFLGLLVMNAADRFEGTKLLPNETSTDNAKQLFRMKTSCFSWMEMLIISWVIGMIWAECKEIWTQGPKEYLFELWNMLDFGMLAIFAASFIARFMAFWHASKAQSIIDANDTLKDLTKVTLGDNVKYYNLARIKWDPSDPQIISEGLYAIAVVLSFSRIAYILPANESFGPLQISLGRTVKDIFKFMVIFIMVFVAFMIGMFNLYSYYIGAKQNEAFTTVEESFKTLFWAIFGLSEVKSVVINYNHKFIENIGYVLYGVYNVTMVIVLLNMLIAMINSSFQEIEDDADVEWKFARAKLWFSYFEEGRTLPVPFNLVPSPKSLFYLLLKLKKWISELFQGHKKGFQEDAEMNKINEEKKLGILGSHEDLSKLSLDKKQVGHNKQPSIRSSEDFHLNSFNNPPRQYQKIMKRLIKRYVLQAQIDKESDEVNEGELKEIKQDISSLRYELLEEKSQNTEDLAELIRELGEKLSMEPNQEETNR
# test protocol: Evaluation of TRPC6 channel inhibitory activity (1), FLIPR Calcium 5 Assay Kit, OAG stimulation (Compound Nos. 1-1293)
# Format: cell-based
# conditions used: Human TRPC6 stably-expressing cells, OAG 30 μM, FLIPR Calcium 5 Assay Kit; read-out: Inhibitory activity (pIC50 class) (converted)
recorded endpoint: IC50

| compound | recorded endpoint | result |
| --- | --- | --- |
| CC(C)CNc1cc(Oc2cc(C#N)ccc2-c2ncc(CN)cn2)cnn1 | IC50 | < 0.01 µM |
| N#Cc1ccc(-c2ncc(CN)cn2)c(Cn2cc(C3CCCCC3)nn2)c1 | IC50 | 0.01 to 1 µM |
| CC(C)n1nc(-c2ccccc2)cc1Oc1cc(C#N)ccc1-c1ccc([C@@H](O)CN)cn1 | IC50 | < 0.01 µM |
| Cc1nc(Oc2cc(C#N)ccc2-c2ccc(CCN)cn2)cc(-c2ccccc2)n1 | IC50 | 0.01 to 1 µM |
| Cc1cc(Oc2cc(C#N)ccc2-c2ccc([C@H](O)CN)cn2)cc(N2CC(F)C2)n1 | IC50 | < 0.01 µM |
| CC(C)c1cc(Oc2cc(C#N)ccc2-c2ncc(CCN)cn2)n(C)n1 | IC50 | < 0.01 µM |
| COCCOc1cc(Oc2cc(C#N)ccc2-c2ncc(CCN)cn2)nc(C)n1 | IC50 | 0.01 to 1 µM |
| N#Cc1ccc(-c2ncc(CCN)cn2)c(C(=O)c2cnn(-c3ncccn3)c2)c1 | IC50 | 0.01 to 1 µM |
| CN(CC(F)F)c1cc(Oc2cc(F)ccc2-c2ncc(CCN)cn2)n(C)n1 | IC50 | < 0.01 µM |
| Cc1nc(Oc2cc(C#N)ccc2-c2ccc(C(O)CN3CCCC3)cc2)cc(-c2ccccc2)n1 (stereo not drawn) | IC50 | > 1 µM |
| CN(CC(F)F)c1cc(Oc2cc(C#N)ccc2-c2ncc(CCN)cn2)n(C)n1 | IC50 | < 0.01 µM |
| Cn1nc(-c2ccccc2)cc1Oc1cc(C#N)ccc1-c1ncc(CN)cn1 | IC50 | < 0.01 µM |
| Cc1cc(Oc2cc(C#N)ccc2-c2ccc([C@H](O)CN)cn2)cc(-c2nc(C)cs2)n1 | IC50 | 0.01 to 1 µM |
| Cc1cc(Oc2cc(C#N)ccc2-c2ncc(CCN)cn2)cc(-c2ccccn2)n1 | IC50 | < 0.01 µM |
| N#Cc1ccc(-c2ccc(CCN)cc2)c(C(O)c2cc(-c3ccccc3)no2)c1 (stereo not drawn) | IC50 | 0.01 to 1 µM |
| Cn1nc(-c2cccnc2)cc1Oc1cc(C#N)ccc1-c1ccc(CCN)nc1 | IC50 | 0.01 to 1 µM |
| N#Cc1ccc(-c2ncc(CCN)cn2)c(C(=O)c2sc(N3CCOCC3)nc2C(F)(F)F)c1 | IC50 | < 0.01 µM |
| COC(=O)c1ccccc1-c1cc(Oc2cc(C#N)ccc2-c2ccc(CCN)cc2)cnn1 | IC50 | < 0.01 µM |
| N#Cc1ccc(-c2ccc(CCN)cn2)c(Oc2nnc(N3CCOCC3)s2)c1 | IC50 | 0.01 to 1 µM |
| Cc1nn(-c2ccccn2)cc1Oc1cc(F)ccc1-c1ncc(CCN)cn1 | IC50 | < 0.01 µM |
| Cc1cc(Oc2cc(C#N)ccc2-c2ccc([C@H](O)CN)cn2)cc(OCC2CCCO2)n1 (stereo partly drawn) | IC50 | 0.01 to 1 µM |
| Cc1cc(Oc2cc(C#N)ccc2-c2ncc(CCN)cn2)cc(-c2cnccn2)n1 | IC50 | 0.01 to 1 µM |
| CN(C)c1cc(Oc2cc(C#N)ccc2-c2ccc([C@H](F)CN)cn2)n(C)n1 | IC50 | < 0.01 µM |
| Cc1nc(Oc2cc(C#N)ccc2-c2ccc(CCN)cc2)cc(-c2ccccc2C(F)(F)F)n1 | IC50 | 0.01 to 1 µM |
| Cn1nc(C2CC2)cc1Oc1cc(C#N)ccc1-c1cc(C(=O)N2CCC[C@@H](N)C2)cn2ccnc12 | IC50 | > 1 µM |
| Cc1nc(Oc2cc(C#N)ccc2-c2ccc(C(CN)c3ccoc3)cc2)cc(N2CCOCC2)n1 (stereo not drawn) | IC50 | 0.01 to 1 µM |
| Cn1nc(C2CC2)cc1Oc1cc(C#N)ccc1-c1cnc(CCN)nc1 | IC50 | > 1 µM |
| Cn1nc(-c2ccccc2)cc1Oc1cc(C#N)ccc1-c1ccc(CCN)cn1 | IC50 | < 0.01 µM |
| Cn1nc(-c2cncs2)cc1Oc1cc(C#N)ccc1-c1ncc(CN)cn1 | IC50 | < 0.01 µM |
| N#Cc1ccc(-c2ccc(CCN)cn2)c(Oc2cc(N3CCOCC3)cnn2)c1 | IC50 | > 1 µM |
| N#Cc1ccc(-c2ccc(CCN)cc2)c(Oc2cnnc(N3CCCC3)c2)c1 | IC50 | < 0.01 µM |
| Cn1nc(-c2ccccn2)cc1Oc1nc(C#N)ccc1-c1ccc(CCN)cn1 | IC50 | < 0.01 µM |
| Cc1nc(-c2cc(Oc3cc(C#N)ccc3-c3ncc(CN)cn3)n(C)n2)cn1C | IC50 | > 1 µM |
